Data provenance is ChEMBL document CHEMBL1944578.

tested on: Mus musculus; test: Anticonvulsant activity in Carworth farms No.1 albino mouse assessed as protection against 6 Hz electric current-induced seizure at 100 mg/kg, ip measured after 1 hrs; format: functional, organism-based; set-up: dose 100 mg/kg
Calls of active or inactive are those of the source. The calls are words filed in the database; no cut-off is given here.
Labels: YES for active, NO for inactive

Smiles input | Discrete label
O=C1[C@H]2CCCCN2[C@@H](c2ccccc2)C(=O)N1Cc1ccccc1 | NO
O=C1NC(=O)[C@@H](c2ccccc2)N2CCCC[C@@H]12 | NO
O=C1CN2CCCC[C@@H]2C(=O)N1 | YES

----------
assay: Neurotoxicity in ip dosed Carworth farms No.1 albino mouse assessed as inability to grasp rotarod measured after 0.25 hrs; format: toxicity, organism-based; conditions: in vivo

Smiles input | Value unit | TD50 at 0.25 h
O=C1NC(=O)[C@H](c2ccccc2)N2CCCC[C@H]12 | mg/kg | 151

----------
The entries below are paired with their reported Time.
species: Mus musculus; test: Anticonvulsant activity in electric shock-induced Carworth farms No.1 albino mouse assessed as time of peak effect; format: functional

Smiles input | Time, h
O=C1NC(=O)[C@H](c2ccccc2)N2CCCC[C@H]12 | 0.25
Cl.O=C1[C@H]2CCCCN2[C@H](c2ccccc2)C(=O)N1CCc1ccccc1 | 0.25
CC[C@@H](C(N)=O)N1CCCC1=O | 1
O=C1NC(=O)[C@@H](c2ccccc2)N2CCCC[C@H]12 | 0.25
O=C1NC(=O)[C@@H]2CCCCN2[C@H]1c1ccccc1 | 0.25
CCOC(=O)CN1C(=O)[C@H](c2ccccc2)N2CCCC[C@H]2C1=O | 0.25

----------
system: Mus musculus; test: Neurotoxicity in Carworth farms No.1 albino mouse assessed as neurological impairment at 100 mg/kg, ip measured after 1 hr; type: toxicity, organism-based; parameters: dose 100 mg/kg, route intraperitoneal; settings: in vivo
Assay readout: Activity

Smiles input | Tgt | Observed
Cl.O=C1[C@H]2CCCCN2[C@H](c2ccccc2)C(=O)N1CCc1ccccc1 | Mus musculus | Non-toxic
O=C1NC(=O)[C@H](c2ccccc2)N2CCCC[C@H]12 | Mus musculus | Non-toxic
O=C1NC(=O)[C@@H](c2ccccc2)N2CCCC[C@H]12 | Mus musculus | Non-toxic
O=C1NC(=O)[C@@H]2CCCCN2[C@H]1c1ccccc1 | Mus musculus | Non-toxic
CCOC(=O)CN1C(=O)[C@H](c2ccccc2)N2CCCC[C@H]2C1=O | Mus musculus | Non-toxic

----------
system: Mus musculus; test: Anticonvulsant activity in Carworth farms No.1 albino mouse assessed as protection against 6 Hz electric current-induced seizure at 100 mg/kg, ip measured after 1 hrs; format: functional, organism-based; design: dose 100 mg/kg
Activity calls are given as the source filed them. The calls are words filed in the database; no cut-off is given here.
Labels: 1.0 = active, 0.0 = inactive

Smiles input | Discrete label
O=C1NC(=O)[C@@H]2CCCCN2[C@H]1c1ccccc1 | 1.0
O=C1CN2CCCC[C@H]2C(=O)N1 | 1.0
O=C1NC(=O)[C@@H](c2ccccc2)N2CCCC[C@H]12 | 1.0
O=C1NC(=O)[C@H](c2ccccc2)N2CCCC[C@H]12 | 0.0
O=C1[C@H](c2ccccc2)N2CCCC[C@H]2C(=O)N1CCc1ccccc1 | 0.0
CCOC(=O)CN1C(=O)[C@H](c2ccccc2)N2CCCC[C@H]2C1=O | 1.0

----------
tested on: Mus musculus; experiment: Neurotoxicity in Carworth farms No.1 albino mouse assessed as neurological impairment at 100 mg/kg, ip measured after 0.5 hrs; format: toxicity, organism-based; set-up: dose 100 mg/kg, route intraperitoneal; conditions: in vivo
Assay readout: Activity

Smiles input | Observed
O=C1NC(=O)[C@@H](c2ccccc2)N2CCCC[C@H]12 | Non-toxic
O=C1CN2CCCC[C@H]2C(=O)N1 | Non-toxic
O=C1NC(=O)[C@H](c2ccccc2)N2CCCC[C@H]12 | Toxic
Cl.O=C1[C@H](c2ccccc2)N2CCCC[C@H]2C(=O)N1CCc1ccccc1 | Non-toxic

----------
test system: Mus musculus; experiment: Neurotoxicity in Carworth farms No.1 albino mouse assessed as neurological impairment at 300 mg/kg, ip measured after 0.5 hrs; type: toxicity, organism-based; set-up: dose 300 mg/kg, route intraperitoneal; details: in vivo

Smiles input | Activity
Cl.O=C1[C@H]2CCCCN2[C@H](c2ccccc2)C(=O)N1Cc1ccccc1 | Toxic
O=C1CN2CCCC[C@@H]2C(=O)N1 | Non-toxic
Cl.O=C1[C@H]2CCCCN2[C@H](c2ccccc2)C(=O)N1CCc1ccccc1 | Non-toxic
O=C1[C@H]2CCCCN2[C@@H](c2ccccc2)C(=O)N1Cc1ccccc1 | Non-toxic
O=C1NC(=O)[C@@H](c2ccccc2)N2CCCC[C@H]12 | Non-toxic
O=C1NC(=O)[C@@H](c2ccccc2)N2CCCC[C@@H]12 | Non-toxic
O=C1[C@H](c2ccccc2)N2CCCC[C@H]2C(=O)N1CCc1ccccc1 | Non-toxic
CCOC(=O)CN1C(=O)[C@H](c2ccccc2)N2CCCC[C@H]2C1=O | Non-toxic
Cl.O=C1[C@H](c2ccccc2)N2CCCC[C@H]2C(=O)N1Cc1ccccc1 | Non-toxic
O=C1CN2CCCC[C@H]2C(=O)N1 | Non-toxic
Cl.O=C1[C@H](c2ccccc2)N2CCCC[C@H]2C(=O)N1CCc1ccccc1 | Non-toxic
O=C1[C@H]2CCCCN2[C@H](c2ccccc2)C(=O)N1CCc1ccccc1 | Non-toxic
O=C1NC(=O)[C@@H]2CCCCN2[C@H]1c1ccccc1 | Toxic

----------
system: Mus musculus; test: Neurotoxicity in Carworth farms No.1 albino mouse assessed as neurological impairment at 30 mg/kg, ip measured after 0.5 hrs; format: toxicity, organism-based; design: dose 30 mg/kg, route intraperitoneal; conditions: in vivo

Smiles input | Activity
O=C1NC(=O)[C@@H](c2ccccc2)N2CCCC[C@H]12 | Non-toxic
O=C1[C@H]2CCCCN2[C@H](c2ccccc2)C(=O)N1CCc1ccccc1 | Non-toxic
Cl.O=C1[C@H]2CCCCN2[C@H](c2ccccc2)C(=O)N1CCc1ccccc1 | Non-toxic
O=C1[C@H]2CCCCN2[C@@H](c2ccccc2)C(=O)N1Cc1ccccc1 | Non-toxic
O=C1CN2CCCC[C@@H]2C(=O)N1 | Non-toxic
O=C1NC(=O)[C@H](c2ccccc2)N2CCCC[C@H]12 | Non-toxic
Cl.O=C1[C@H]2CCCCN2[C@H](c2ccccc2)C(=O)N1Cc1ccccc1 | Non-toxic
Cl.O=C1[C@H](c2ccccc2)N2CCCC[C@H]2C(=O)N1Cc1ccccc1 | Non-toxic
CCOC(=O)CN1C(=O)[C@H](c2ccccc2)N2CCCC[C@H]2C1=O | Non-toxic
O=C1NC(=O)[C@@H]2CCCCN2[C@H]1c1ccccc1 | Non-toxic
O=C1[C@H](c2ccccc2)N2CCCC[C@H]2C(=O)N1CCc1ccccc1 | Non-toxic
Cl.O=C1[C@H](c2ccccc2)N2CCCC[C@H]2C(=O)N1CCc1ccccc1 | Non-toxic
O=C1NC(=O)[C@@H](c2ccccc2)N2CCCC[C@@H]12 | Non-toxic
O=C1CN2CCCC[C@H]2C(=O)N1 | Non-toxic
